Recorded values, source patent US11739074B2.

# targetDesc: KRAS WT (Homo sapiens, UniProt P01116+P62937)
# Sequence (P01116 1-169 isoform P01116-2 limits assumed): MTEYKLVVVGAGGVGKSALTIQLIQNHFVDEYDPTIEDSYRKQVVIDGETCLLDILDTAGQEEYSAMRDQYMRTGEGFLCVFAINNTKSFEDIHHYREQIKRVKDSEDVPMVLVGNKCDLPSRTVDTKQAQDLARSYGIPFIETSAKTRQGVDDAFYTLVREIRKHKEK
# Sequence (P62937 whole entry): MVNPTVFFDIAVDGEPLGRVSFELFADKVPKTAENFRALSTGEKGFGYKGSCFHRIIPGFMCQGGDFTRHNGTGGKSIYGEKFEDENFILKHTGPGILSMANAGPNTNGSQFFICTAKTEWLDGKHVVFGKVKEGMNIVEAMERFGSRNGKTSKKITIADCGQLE
# measurementProtocol: Ras-Raf disruption/FRET/MOA assay, KRAS WT
# Format: biochemical
# testSettings: disruption of BRAF RBD binding, with Cyclophilin A; read-out: KRAS WT FRET IC50
recordedMetric: IC50

Consider the worked cases shown below.
1. CCn1c(-c2cccnc2[C@H](C)OC)c2c3cc(ccc31)-c1cccc(c1)C[C@H](NC(=O)[C@H](C(C)C)N1CC[C@H](CN=C=NCCOC)C1)C(=O)N1CCC[C@H](N1)C(=O)OCC(C)(C)C2 [Compound 122] | 1 to 10 µM
2. CCn1c(-c2cnccc2COC)c2c3cc(ccc31)-c1cc(O)cc(c1)C[C@H](NC(=O)[C@H](C(C)C)N(C)C(=O)CN(C)C(=O)C1CN1S(C)(=O)=O)C(=O)N1CCC[C@H](N1)C(=O)OCC(C)(C)C2 (some centres unmarked) [Compound 13] | 0.01 to 0.1 µM
3. CCn1c(-c2cccnc2[C@H](C)OC)c2c3cc(ccc31)-c1cc(CF)cc(c1)C[C@H](NC(=O)[C@H](C1CCCC1)N1CC[C@]3(CCN(C(=O)[C@@H]4N[C@@H]4C4CC4)C3)C1=O)C(=O)N1CCC[C@H](N1)C(=O)OCC(C)(C)C2 [Compound 321] | 0.1 to 1 µM
4. CCn1c(-c2cc(N3CCN(C)CC3)cnc2[C@H](C)OC)c2c3cc(ccc31)-c1csc(n1)C[C@H](NC(=O)[C@H](C1CCCC1)N1CC[C@]3(CCN(C(=O)[C@@H]4N[C@@H]4C4CC4)C3)C1=O)C(=O)N1CCC[C@H](N1)C(=O)OCC(C)(C)C2 [Compound 324] | 0.1 to 1 µM
5. CCn1c(-c2cccnc2[C@H](C)OC)c2c3cc(ccc31)-c1cc(O)cc(c1)C[C@H](NC(=O)[C@H](C(C)C)N1CC[C@@]3(CCN(C[C@H]4CN4)C3)C1=O)C(=O)N1CCC[C@H](N1)C(=O)OCC(C)(C)C2 (single isomer, unassigned) [Example 139] | 0.01 to 0.1 µM

Would you kindly share the measured IC50 for CCn1c(-c2cnccc2COC)c2c3cc(ccc31)-c1cc(O)cc(c1)C[C@H](NC(=O)[C@H](C(C)C)N(C)C(=O)CN(C)C(=O)[C@H]1[C@@H](C3CC3)N1[S@+]([O-])C(C)(C)C)C(=O)N1CCC[C@H](N1)C(=O)OCC(C)(C)C2 (some centres unmarked) [Compound 52] ?
0.01 to 0.1 µM

Entry to check: CCn1c(-c2cccnc2[C@H](C)OC)c2c3cc(ccc31)-c1cc(O)cc(c1)C[C@H](NC(=O)[C@H](C(C)C)N1CC[C@]3(CCN(C[C@@H]4CN4)C3)C1=O)C(=O)N1CCC[C@H](N1)C(=O)OCC(C)(C)C2 [Compound 176]
0.01 to 0.1 µM

Entry to check: CCn1c(-c2cnccc2COC)c2c3cc(ccc31)-c1cc(O)cc(c1)C[C@H](NC(=O)[C@H](C(C)C)N(C)C(=O)[C@H]1CCN(C(=O)N3C[C@H]3C(=O)OC)C1)C(=O)N1CCC[C@H](N1)C(=O)OCC(C)(C)C2 [Compound 111]
0.1 to 1 µM
